System: Candida albicans
Experiment: Inhibition of Candida albicans AHAS catalytic subunit at 100 uM using pyruvate as substrate measured after 30 mins by colorimetric method relative to control
Item-by-item account of inhibition

{"substance smiles": "COc1cc(OC)nc(Sc2ccc(C(=O)O)cc2Br)n1", "target of assay": "Candida albicans", "measured property": "inhibition", "meas value": "94.6%"}
{"substance smiles": "COc1nc(OC)nc(Sc2cccc(F)c2C#N)n1", "target of assay": "Candida albicans", "measured property": "inhibition", "meas value": "70.4%"}
{"substance smiles": "COc1nc(OC)nc(Sc2cccc(I)c2C#N)n1", "target of assay": "Candida albicans", "measured property": "inhibition", "meas value": "69.3%"}
{"substance smiles": "COc1cc(OC)nc(Sc2cccc(Cl)c2C(=O)O)n1", "target of assay": "Candida albicans", "measured property": "inhibition", "meas value": "40%"}

Given COc1cc(OC)nc(Sc2ccc(C(=O)O)cc2F)n1 , state its recorded inhibition.
91.7%

Query: inhibition; subject: COc1cc(OC)nc(Sc2ccc(Cl)cc2C(=O)O)n1
96.6%

Quick one: inhibition for COc1nc(OC)nc(Sc2ccc(C(=O)O)cc2Cl)n1 ?
73%

# lookup: inhibition of COc1cc(OC)nc(Sc2cc(C(F)(F)F)ccc2C(=O)O)n1
31.2%

----------
Tested on: Arabidopsis thaliana
Experiment: Inhibition of Arabidopsis thaliana AHAS catalytic subunit using pyruvate as substrate at 10 uM measured after 30 mins by colorimetric method relative to control
Please note: Condition met applies when inhibition is 20% or greater, and Condition not met applies otherwise.

{"substance smiles": "COc1nc(OC)nc(Sc2cc(Cl)ccc2C#N)n1", "group label": "Condition met"}
{"substance smiles": "COc1nc(OC)nc(Sc2ccc(Br)cc2C#N)n1", "group label": "Condition met"}
{"substance smiles": "COc1nc(OC)nc(Sc2ccc(C#N)cc2Cl)n1", "group label": "Condition met"}
{"substance smiles": "COc1nc(OC)nc(Sc2cccc(Br)c2C#N)n1", "group label": "Condition met"}
{"substance smiles": "COc1nc(OC)nc(Sc2ccc(C(=O)O)cc2F)n1", "group label": "Condition not met"}
{"substance smiles": "COc1nc(OC)nc(Sc2ccc(C(=O)O)cc2Br)n1", "group label": "Condition met"}
{"substance smiles": "COc1cc(OC)nc(Sc2ccc(C(=O)O)cc2C(=O)O)n1", "group label": "Condition not met"}
{"substance smiles": "COc1nc(OC)nc(Oc2cccc(Br)c2)n1", "group label": "Condition not met"}
{"substance smiles": "COc1nc(OC)nc(Sc2ccc(C#N)cc2C(F)(F)F)n1", "group label": "Condition not met"}
{"substance smiles": "COc1nc(OC)nc(Sc2ccc(F)cc2C(=O)O)n1", "group label": "Condition not met"}

Is the recorded value of inhibition equal to or greater than 20% for this molecule? COc1nc(OC)nc(Sc2ccc(Cl)cc2C(=O)O)n1
Condition not met

Textbook exercise: given the entry COc1nc(OC)nc(Sc2cccc(F)c2C#N)n1 , state whether its inhibition is greater than or equal to 20%.
Condition met

Given COc1nc(OC)nc(Sc2ccc(C#N)cc2F)n1 , state whether its inhibition is at least 20%.
Condition met

Does the reported inhibition for COc1cc(OC)nc(Sc2ccc(Cl)cc2C(=O)O)n1 fall at or above the 20% mark?
Condition met

For this molecule, is measured inhibition 20% or higher? COc1nc(OC)nc(Sc2ccc(C(=O)O)cc2C(=O)O)n1
Condition met

Item COc1cc(OC)nc(Sc2cc(C(F)(F)F)ccc2C#N)n1 with inhibition of 20% or above?
Condition not met
